system: basil 'Genovese'; assay: Content analysis of basil: protein, minerals (Example 4, Tables 10-11); type: in vivo; conditions: 28 DA-A, rates g ai/ha: chlropyrifos 1120, chlorothalonil 2630, paclobutrazol 3.23, mepiquat-chloride 12.3, Isoxadifen 8, Napthalic anhydride 264, + NIS 0.25 % v/v
List of Magnesium, Percent Increase Over the Untreated Check (on a % dry matter basis) values.
property: Magnesium, Percent Increase Over the Untreated Check (on a % dry matter basis) (% check)

{"compound": "CCOP(=S)(OCC)Oc1nc(Cl)c(Cl)cc1Cl", "unitOfMeasure": "% check", "resultNumber": 12}
{"compound": "O=C1OC(=O)c2cccc3cccc1c23 [napthalic anhydride]", "unitOfMeasure": "% check", "resultNumber": 12}
{"compound": "CC(C)(C)[C@@H](O)[C@@H](Cc1ccc(Cl)cc1)n1cncn1 (racemic)", "unitOfMeasure": "% check", "resultNumber": "−8"}
{"compound": "N#Cc1c(Cl)c(Cl)c(Cl)c(C#N)c1Cl", "unitOfMeasure": "% check", "resultNumber": 3}
{"compound": "C[N+]1(C)CCCCC1 [mepiquat-chloride]", "unitOfMeasure": "% check", "resultNumber": 0}
{"compound": "CCOC(=O)C1=NOC(c2ccccc2)(c2ccccc2)C1", "unitOfMeasure": "% check", "resultNumber": 9}

----------
tested on: basil 'Genovese'; experiment: Visual injury of basil after insecticide, fungicide, PGRs, safeners (Example 4); conditions: 14 DA-A, rates g ai/ha: chlropyrifos 1120, chlorothalonil 2630, paclobutrazol 3.23, mepiquat-chloride 12.3, Isoxadifen 8, Napthalic anhydride 264, + NIS 0.25 % v/v
List of Phytotoxicity Stunting values.
property: Phytotoxicity Stunting (%)

{"molecule": "CCOP(=S)(OCC)Oc1nc(Cl)c(Cl)cc1Cl", "property": "Phytotoxicity Stunting", "unitOfMeasure": "%", "resultNumber": 10}
{"molecule": "O=C1OC(=O)c2cccc3cccc1c23 [napthalic anhydride]", "property": "Phytotoxicity Stunting", "unitOfMeasure": "%", "resultNumber": 0}
{"molecule": "CCOC(=O)C1=NOC(c2ccccc2)(c2ccccc2)C1", "property": "Phytotoxicity Stunting", "unitOfMeasure": "%", "resultNumber": 5}
{"molecule": "N#Cc1c(Cl)c(Cl)c(Cl)c(C#N)c1Cl", "property": "Phytotoxicity Stunting", "unitOfMeasure": "%", "resultNumber": 8}
{"molecule": "C[N+]1(C)CCCCC1 [mepiquat-chloride]", "property": "Phytotoxicity Stunting", "unitOfMeasure": "%", "resultNumber": 3}
{"molecule": "CC(C)(C)[C@@H](O)[C@@H](Cc1ccc(Cl)cc1)n1cncn1 (racemic)", "property": "Phytotoxicity Stunting", "unitOfMeasure": "%", "resultNumber": 7}

----------
system: kale 'Red Russian'; assay: Content analysis of kale: protein, amino acids, fiber, fatty acids, minerals (Example 4, Tables 12-14); type: in vivo; details: 28 DA-A, rates g ai/ha: chlropyrifos 3370, chlorothalonil 7900, paclobutrazol 9.7, mepiquat-chloride 37, + NIS 0.25 % v/v
property: Calcium, Percent Increase Over the Untreated Check (on a % dry matter basis) (% check)

{"compound": "CC(C)(C)[C@@H](O)[C@@H](Cc1ccc(Cl)cc1)n1cncn1 (racemic)", "resultNumber": 22}
{"compound": "CCOP(=S)(OCC)Oc1nc(Cl)c(Cl)cc1Cl", "resultNumber": 0}
{"compound": "C[N+]1(C)CCCCC1 [mepiquat-chloride]", "resultNumber": "−3"}
{"compound": "N#Cc1c(Cl)c(Cl)c(Cl)c(C#N)c1Cl", "resultNumber": "−1"}

----------
test system: kale 'Red Russian'; assay: Visual injury of kale after insecticide, fungicide, PGRs, safeners (Example 4); details: 28 DA-A, rates g ai/ha: chlropyrifos 3370, chlorothalonil 7900, paclobutrazol 9.7, mepiquat-chloride 37, + NIS 0.25 % v/v
List of Phytotoxicity Stunting values.

{"compound": "C[N+]1(C)CCCCC1 [mepiquat-chloride]", "Phytotoxicity Stunting (%)": 10}
{"compound": "CC(C)(C)[C@@H](O)[C@@H](Cc1ccc(Cl)cc1)n1cncn1 (racemic)", "Phytotoxicity Stunting (%)": 19}
{"compound": "CCOP(=S)(OCC)Oc1nc(Cl)c(Cl)cc1Cl", "Phytotoxicity Stunting (%)": 6}
{"compound": "N#Cc1c(Cl)c(Cl)c(Cl)c(C#N)c1Cl", "Phytotoxicity Stunting (%)": 8}

----------
test system: kale 'Red Russian'; test: Content analysis of kale: protein, amino acids, fiber, fatty acids, minerals (Example 4, Tables 12-14); type: in vivo; settings: 28 DA-A, rates g ai/ha: chlropyrifos 1120, chlorothalonil 2630, paclobutrazol 3.23, mepiquat-chloride 12.3, + NIS 0.25 % v/v
List of Zinc, Percent Increase Over the Untreated Check (on a % dry matter basis) values.
property: Zinc, Percent Increase Over the Untreated Check (on a % dry matter basis)

{"molecule": "N#Cc1c(Cl)c(Cl)c(Cl)c(C#N)c1Cl [chlorothalonil]", "result": "−4 % check"}
{"molecule": "C[N+]1(C)CCCCC1 [mepiquat-chloride]", "result": "−5 % check"}
{"molecule": "CCOP(=S)(OCC)Oc1nc(Cl)c(Cl)cc1Cl [chlropyrifos]", "result": "18 % check"}
{"molecule": "CC(C)(C)[C@@H](O)[C@@H](Cc1ccc(Cl)cc1)n1cncn1 (racemic) [paclobutrazol]", "result": "11 % check"}

----------
List of Calcium, Percent Increase Over the Untreated Check (on a % dry matter basis) values.
test system: basil 'Genovese'; test: Content analysis of basil: protein, minerals (Example 4, Tables 10-11); assay type: in vivo; settings: 28 DA-A, rates g ai/ha: chlropyrifos 1120, chlorothalonil 2630, paclobutrazol 3.23, mepiquat-chloride 12.3, Isoxadifen 8, Napthalic anhydride 264, + NIS 0.25 % v/v
property: Calcium, Percent Increase Over the Untreated Check (on a % dry matter basis) (% check)

{"compound": "CCOP(=S)(OCC)Oc1nc(Cl)c(Cl)cc1Cl", "unitOfMeasure": "% check", "resultNumber": 7}
{"compound": "C[N+]1(C)CCCCC1 [mepiquat-chloride]", "unitOfMeasure": "% check", "resultNumber": 2}
{"compound": "CC(C)(C)[C@@H](O)[C@@H](Cc1ccc(Cl)cc1)n1cncn1 (racemic)", "unitOfMeasure": "% check", "resultNumber": "−2"}
{"compound": "O=C1OC(=O)c2cccc3cccc1c23 [napthalic anhydride]", "unitOfMeasure": "% check", "resultNumber": 2}
{"compound": "N#Cc1c(Cl)c(Cl)c(Cl)c(C#N)c1Cl", "unitOfMeasure": "% check", "resultNumber": 0}
{"compound": "CCOC(=O)C1=NOC(c2ccccc2)(c2ccccc2)C1", "unitOfMeasure": "% check", "resultNumber": "−2"}

----------
List of Phytotoxicity Stunting values.
System: kale 'Red Russian'
Test: Visual injury of kale after insecticide, fungicide, PGRs, safeners (Example 4)
Conditions: 14 DA-A, rates g ai/ha: chlropyrifos 3370, chlorothalonil 7900, paclobutrazol 9.7, mepiquat-chloride 37, + NIS 0.25 % v/v
Procedure: Greenhouse and laboratory studies were conducted to ascertain the tolerance and nutritional quality differences following postemergence applications of the insecticide chlorpyrifos, the fungicide chlorothalonil, the PGRs mepiquat-chloride and paclobutrazol, and the safeners napthalic anhydride and isoxadifen-ethyl on kale ‘Red Russian’ and basil ‘Genovese’. […]
property: Phytotoxicity Stunting (%)

{"compound": "N#Cc1c(Cl)c(Cl)c(Cl)c(C#N)c1Cl [chlorothalonil]", "property": "Phytotoxicity Stunting", "unitOfMeasure": "%", "resultNumber": 5}
{"compound": "CCOP(=S)(OCC)Oc1nc(Cl)c(Cl)cc1Cl [chlropyrifos]", "property": "Phytotoxicity Stunting", "unitOfMeasure": "%", "resultNumber": 10}
{"compound": "CC(C)(C)[C@@H](O)[C@@H](Cc1ccc(Cl)cc1)n1cncn1 (racemic) [paclobutrazol]", "property": "Phytotoxicity Stunting", "unitOfMeasure": "%", "resultNumber": 28}
{"compound": "C[N+]1(C)CCCCC1 [mepiquat-chloride]", "property": "Phytotoxicity Stunting", "unitOfMeasure": "%", "resultNumber": 3}

----------
test system: basil 'Genovese'; assay: Content analysis of basil: protein, minerals (Example 4, Tables 10-11); format: in vivo; conditions: 28 DA-A, rates g ai/ha: chlroprifos 3370, chlorothalonil 7900, paclobutrazol 9.7, mepiquat-chloride 37, Isoxadifen 16, Napthalic anhydride 527, + NIS 0.25 % v/v
List of Calcium, Percent Increase Over the Untreated Check (on a % dry matter basis) values.
property: Calcium, Percent Increase Over the Untreated Check (on a % dry matter basis) (% check)

{"compound": "O=C1OC(=O)c2cccc3cccc1c23 [napthalic anhydride]", "testTarget": "basil 'Genovese'", "unitOfMeasure": "% check", "resultNumber": "−8"}
{"compound": "C[N+]1(C)CCCCC1 [mepiquat-chloride]", "testTarget": "basil 'Genovese'", "unitOfMeasure": "% check", "resultNumber": 2}
{"compound": "CCOC(=O)C1=NOC(c2ccccc2)(c2ccccc2)C1 [isoxadifen, isoxadifen-ethyl]", "testTarget": "basil 'Genovese'", "unitOfMeasure": "% check", "resultNumber": 6}
{"compound": "CC(C)(C)[C@@H](O)[C@@H](Cc1ccc(Cl)cc1)n1cncn1 (racemic) [paclobutrazol]", "testTarget": "basil 'Genovese'", "unitOfMeasure": "% check", "resultNumber": "−18"}
{"compound": "N#Cc1c(Cl)c(Cl)c(Cl)c(C#N)c1Cl [chlorothalonil]", "testTarget": "basil 'Genovese'", "unitOfMeasure": "% check", "resultNumber": "−15"}
{"compound": "CCOP(=S)(OCC)Oc1nc(Cl)c(Cl)cc1Cl [chlroprifos]", "testTarget": "basil 'Genovese'", "unitOfMeasure": "% check", "resultNumber": 3}
